- Test system: Aquaporin 9 (AQP9) (Mus musculus)
- Sequence (Q9JJJ3 1-295): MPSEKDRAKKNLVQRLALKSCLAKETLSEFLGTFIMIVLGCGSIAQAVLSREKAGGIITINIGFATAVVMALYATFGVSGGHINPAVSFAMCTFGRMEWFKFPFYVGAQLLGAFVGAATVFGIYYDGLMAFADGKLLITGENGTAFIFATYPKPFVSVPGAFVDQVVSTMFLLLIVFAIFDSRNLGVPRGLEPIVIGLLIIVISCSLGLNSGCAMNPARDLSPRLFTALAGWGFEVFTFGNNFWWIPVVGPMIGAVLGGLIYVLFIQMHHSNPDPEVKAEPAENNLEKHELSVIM
- Measurement notes: glycerol, water and H2O2 permeability in CHO cells expressing mouse AQP9 (calcein / HyPer-3 fluorescence)
- Format: cell-based
Assay metric: IC50

## Task Quickly give me recorded IC50 for CCn1c(SCC(=O)Nc2nnc(-c3ccc(OC(C)C)cc3)s2)nnc1C(C)C [RG, RG100204]
## Result ~0.076 µM
